The reported numbers originate from PubChem BioAssay (Tox21).

ASSAY_OVERVIEW: qHTS assay for small molecules that induce genotoxicity in human embryonic kidney cells expressing luciferase-tagged ATAD5 - cell viability (AID 651634); also: nearly all actives have a fitted effect of over 25% in size
CONDITION_NOTES: HEK293T ATAD5-luc cells viability, CellTiter-Fluor, 15.5 h; series mostly up to 83.3 µM
Source text: National Center for Advancing Translational Sciences [NCATS] NIH Chemical Genomics Center [NCGC] U.S. Environmental Protection Agency [EPA] National Institutes of Environmental Health Sciences [NIEHS] National Toxicology Program [NTP] U.S. Food and Drug Administration [FDA] Enhanced Level of Genome Instability Gene 1 (ELG1; human ATAD5) protein levels increase in response to various types of DNA damage. […]
Records with an inconclusive call do not appear. Activity calls are given as the source filed them. Calls follow the shape of the full dose curve.
PARAMETER: outcome

C[N+]1([O-])[C@@H]2CC(OC(=O)[C@H](CO)c3ccccc3)C[C@H]1[C@@H]1O[C@@H]12 (stereo partly specified) ... inactive
CCCC(C)C1(CC)C(=O)NC(=O)NC1=O (stereo unspecified) ... inactive
O=C1OC2(c3cc(Br)c(O)cc3Oc3c2cc(Br)c(O)[c]3[Hg])c2ccccc21 (stereo unspecified) ... inactive
Oc1ccc2c3c1O[C@H]1[C@@H](O)C=C[C@H]4[C@H](C2)NCC[C@@]341 ... inactive
O=C(C[C@@H]1NCCC[C@H]1O)Cn1cnc2cc(Br)c(Cl)cc2c1=O ... inactive

The record that follows has no outcome shown yet.
Which outcome value is on record for CC(=O)OO ?
inactive

###

ASSAY_OVERVIEW: qHTS assay to identify small molecule agonists of the estrogen related receptor signaling pathway with the pleiotropic PPARgamma coactivator (PGC) (AID 1224823)
CONDITION_NOTES: ERR/PGC reporter cell line, luciferase agonist mode; series mostly up to 46.1 µM
Results filed as inconclusive are left out. Activity calls are given as the source filed them. Calls follow the shape of the dose curve; as a rule, active = well fitted activation curve with a large enough effect in the repeat runs; inconclusive = weak or mixed curves; inactive = no such curve, though single readings can be large or run the other way.
Bench note: report the call from active, inactive

Per the assay record, what outcome was assigned to NC(C(=O)O)c1cc(=O)[nH]o1 (stereo not drawn) ?
inactive

Please indicate how the test categorized O=C(O)[C@@H]1CCN1 .
inactive

Called result for CC(C)Oc1cccnc1N(C)C1CCN(Cc2ccccc2)CC1
inactive

Hey, what did the test say about C[N+](C)(C)CCOC(=O)CBr ?
inactive

Hey, what did the test say about Oc1ccc2c3c1O[C@H]1c4[nH]c5c(c4C[C@@]4(O)[C@@H](C2)N(CC2CC2)CC[C@]314)C[C@@]1(O)[C@H]2Cc3ccc(O)c4c3[C@@]1(CCN2CC1CC1)[C@H]5O4 ?
inactive

Hi, do you know how O=C(N[C@H]1CN2CCC1CC2)c1ccc(Cl)cc1 came out in this test?
inactive

Query: recorded result category for CCNC(=O)[C@H]1O[C@@H](n2cnc3c(N)ncnc32)[C@H](O)C1O (stereo partly drawn) in this test
active

What was the test verdict on N[C@@]1(C(=O)O)CC[C@@H](C(=O)O)C1 ?
inactive

Just curious, what result did C[C@]12CCC3C(CC[C@H]4C[C@H](O)CC[C@]34C)C1CC[C@@H]2C(=O)CO (stereo partly drawn) get here?
inactive

Please state the recorded outcome for this compound: CC(C)NC(C)Cc1ccc(I)cc1 (stereo not drawn)
inactive

Status in this test for NCc1cc(=O)[nH]o1 ?
inactive

I'd appreciate the recorded outcome for CC(=O)NBr from this test.
inactive

GET /call?item= NC1CCc2cc(O)c(O)cc2C1 (stereo not drawn) returns the recorded outcome of this test.
inactive

Record request — test call for C[C@H](N)CN1CCc2ccc(Br)cc21
inactive

Outcome? N#C/C(=C/c1ccc(O)c(O)c1)C(N)=S
inactive

Give the logged outcome of this assay for the following compound: N[C@@H](Cn1oc(=O)[nH]c1=O)C(=O)O
inactive

For COc1ccc2c(c[n+](C)c3c4cc5c(cc4ccc23)OCO5)c1OC , which call appears in the assay record?
inactive

Given COc1ccc2c(c1)C13CCCCC1C(C2)N(C)CC3 (stereo not drawn) , state the outcome it received in this test.
inactive

Record lookup: outcome of this test for NC(N)=Nc1ccc2[nH]c3c(c2c1)C[C@@]1(O)[C@H]2Cc4ccc(O)c5c4[C@@]1(CCN2CC1CC1)[C@H]3O5 ?
inactive

I would be grateful if you could indicate the recorded call for CN1CCc2cccc(Cl)c2CC1 .
inactive

Hi, do you know how Clc1cc(I)cc(Cl)c1NC1=NCCN1 came out in this test?
inactive

What call does the record list for C/C=C(/C)C(=O)O[C@H]1C(C)=C2[C@H]([C@@H]1OC(=O)CCCCCCC)[C@@](C)(OC(C)=O)C[C@H](OC(=O)CCC)[C@@]1(O)[C@H]2OC(=O)[C@@]1(C)O ?
inactive

Could you kindly confirm the outcome this assay logged for COC(=O)N1CCN(C(=O)Cc2ccc(Cl)c(Cl)c2)C(CN2CCCC2)C1 (stereo not drawn) ?
inactive
